Data provenance: patent US10758549B2

Assay info: Particle size distribution, dry dispersion laser diffraction (Sympatec)
Type: physicochemical
Protocol conditions: After jet-milling (micronized)
Each entry below lists one item and its recorded Dv (10) value.
Quick note: give the figure in µm, leave out the unit.

{"columns": ["Compound", "Dv (10) (µm)"],
 "data": [
  ["CC[C@H]1[C@@H](O)[C@@H]2[C@H](CC[C@]3(C)[C@@H]([C@H](C)CCC(=O)O)CC[C@@H]23)[C@@]2(C)CC[C@@H](O)C[C@@H]12 [OCA Example # 1]", 0.7],
  ["CC[C@H]1[C@@H](O)[C@@H]2[C@H](CC[C@]3(C)[C@@H]([C@H](C)CCC(=O)O)CC[C@@H]23)[C@@]2(C)CC[C@@H](O)C[C@@H]12 [OCA Example # 2]", 0.6]
]}

Consider now this further compound.
Input CC[C@H]1[C@@H](O)[C@@H]2[C@H](CC[C@]3(C)[C@@H]([C@H](C)CCC(=O)O)CC[C@@H]23)[C@@]2(C)CC[C@@H](O)C[C@@H]12 [OCA Example # 3] . Output Dv (10): 0.7
